Answer each item with its documented fold better than Parent (KD).
Molecular target: T1, CEACAM1 (Sino Biological) (human, UniProt P13688 35-428, limits assumed)
T1 construct: may be the same as CEACAM1-HIS; also called hCEACAM1; biotinylated soluble CEACAM1
T1 sequence: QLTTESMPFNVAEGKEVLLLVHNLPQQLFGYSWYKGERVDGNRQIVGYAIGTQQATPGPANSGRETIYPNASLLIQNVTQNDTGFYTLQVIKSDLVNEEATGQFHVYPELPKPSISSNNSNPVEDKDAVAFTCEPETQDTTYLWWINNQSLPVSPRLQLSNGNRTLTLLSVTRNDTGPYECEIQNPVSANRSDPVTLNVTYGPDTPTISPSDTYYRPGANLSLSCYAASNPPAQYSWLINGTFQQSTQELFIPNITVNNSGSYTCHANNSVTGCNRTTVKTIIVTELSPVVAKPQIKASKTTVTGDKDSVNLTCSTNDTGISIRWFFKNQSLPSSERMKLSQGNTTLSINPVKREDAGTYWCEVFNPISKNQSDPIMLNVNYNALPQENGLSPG
Assay: SPR single-cycle
Numbers only, in fold.

Some binders with recorded fold better than Parent (KD):
Binder	fold better than Parent (KD) / fold
He1/L2 (antibody, IgG4, V domains shown, IgG4 S241P, kappa) VH: EVQLLESGGGLVQPGGSLRLSCAASGFSFSDYYLYWVRQAPGKGLEWVATISVGGGQTSYADSVKGRFTISRDNSKNTLYLQMNSLRAEDTAMYYCTRGLYYGPSWFAYWGQGTLVTVSS VL: DIVMTQSPDSLAVSLGERATINCKSSQSLLNSANQKNYLAWYQQKPGQPPKLLIYFASTRESGVPDRFSGSGSGTDFTLTISSLQAEDVAVYYCQSHYPFPYTFGGGTKVEIK	1.13
He17/L20 (antibody, IgG4, V domains shown, IgG4 S241P, kappa) VH: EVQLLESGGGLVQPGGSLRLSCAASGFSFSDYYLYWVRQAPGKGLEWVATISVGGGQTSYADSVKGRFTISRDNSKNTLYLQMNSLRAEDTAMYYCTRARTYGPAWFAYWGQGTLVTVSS VL: DIVMTQSPDSLAVSLGERATINCKSSQSLLNSANQKNYLAWYQQKPGQPPKLLIYFASTRESGVPDRFSGSGSGTDFTLTISSLQAEDVAVYYCQSHFPYPLTFGGGTKVEIK	1.61

Qu. Query (binder): He9/L1 (antibody, IgG4, V domains shown, IgG4 S241P, kappa) VH: EVQLLESGGGLVQPGGSLRLSCAASGFSFSDYYLYWVRQAPGKGLEWVATISVGGGQTSYADSVKGRFTISRDNSKNTLYLQMNSLRAEDTAMYYCARAMYYGPAWFAYWGQGTLVTVSS VL: DIVMTQSPDSLAVSLGERATINCKSSQSLLNSANQKNYLAWYQQKPGQPPKLLIYFASTRESGVPDRFSGSGSGTDFTLTISSLQAEDVAVYYCQSHYPFYYTFGGGTKVEIK ; field requested: fold better than Parent (KD)
Ans. 2.32
